What GI50 was measured for each of the following?
Biological target: EGFR (human) (UniProt P00533)
Sequence (P00533 whole entry, looked up): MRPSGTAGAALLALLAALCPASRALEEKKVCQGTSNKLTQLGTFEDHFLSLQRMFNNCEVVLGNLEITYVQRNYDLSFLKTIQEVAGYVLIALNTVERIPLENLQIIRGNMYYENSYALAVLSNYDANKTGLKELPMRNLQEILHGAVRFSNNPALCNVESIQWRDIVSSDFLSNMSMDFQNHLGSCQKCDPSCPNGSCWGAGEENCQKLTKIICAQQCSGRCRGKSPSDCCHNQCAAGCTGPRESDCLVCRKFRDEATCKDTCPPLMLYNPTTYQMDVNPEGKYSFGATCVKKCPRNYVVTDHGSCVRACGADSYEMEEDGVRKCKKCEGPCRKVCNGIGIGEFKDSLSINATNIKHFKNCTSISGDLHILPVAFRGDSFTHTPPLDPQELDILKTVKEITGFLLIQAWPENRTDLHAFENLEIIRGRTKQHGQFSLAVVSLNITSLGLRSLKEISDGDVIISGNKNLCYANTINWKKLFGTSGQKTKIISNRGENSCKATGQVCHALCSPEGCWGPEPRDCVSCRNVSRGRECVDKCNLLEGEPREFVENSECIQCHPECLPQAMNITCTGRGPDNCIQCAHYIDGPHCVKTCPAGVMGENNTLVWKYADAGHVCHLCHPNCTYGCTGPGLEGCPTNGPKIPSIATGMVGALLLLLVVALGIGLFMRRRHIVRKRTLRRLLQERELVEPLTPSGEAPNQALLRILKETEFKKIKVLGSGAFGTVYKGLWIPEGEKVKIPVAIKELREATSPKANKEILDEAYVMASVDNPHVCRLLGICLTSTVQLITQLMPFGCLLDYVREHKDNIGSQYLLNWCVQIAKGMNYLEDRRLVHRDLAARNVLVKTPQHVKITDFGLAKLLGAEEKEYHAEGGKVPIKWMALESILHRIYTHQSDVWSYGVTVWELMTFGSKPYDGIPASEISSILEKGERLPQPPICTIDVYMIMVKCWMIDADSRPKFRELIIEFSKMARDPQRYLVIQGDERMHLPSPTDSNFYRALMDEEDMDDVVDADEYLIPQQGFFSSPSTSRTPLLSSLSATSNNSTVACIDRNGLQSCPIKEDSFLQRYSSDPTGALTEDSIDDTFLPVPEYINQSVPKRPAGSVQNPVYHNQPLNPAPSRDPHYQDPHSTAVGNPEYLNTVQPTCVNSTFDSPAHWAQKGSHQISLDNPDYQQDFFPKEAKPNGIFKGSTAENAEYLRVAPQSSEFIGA
Conditions: a431
Numeric only. Scale: nM

Request: Reported GI50, compound Cc1cc(C)cc(Nc2ncnc3cc4c(cc23)OCCO4)c1 : ____
Result: 120

Request: Reported GI50, compound Ic1cccc(Nc2ncnc3cc4c(cc23)OCCO4)c1 : ____
Result: 1550

Request: Reported GI50, compound Brc1cccc(Nc2ncnc3cc4c(cc23)OCCO4)c1 : ____
Result: 200

Request: Reported GI50, compound Clc1cccc(Nc2ncnc3cc4c(cc23)OCCO4)c1 : ____
Result: 190

Request: Reported GI50, compound Fc1ccc(Nc2ncnc3cc4c(cc23)OCCO4)cc1 : ____
Result: 1290

Request: Reported GI50, compound c1ccc(Nc2ncnc3cc4c(cc23)OCCO4)cc1 : ____
Result: 3800

Request: Reported GI50, compound Fc1cc(Nc2ncnc3cc4c(cc23)OCCO4)ccc1Cl : ____
Result: 490

Request: Reported GI50, compound FC(F)(F)c1cccc(Nc2ncnc3cc4c(cc23)OCCO4)c1 : ____
Result: 140

src = the Kinase Knowledgebase extract (Sharma et al. 2016)
